- study_target: Histone-arginine methyltransferase CARM1 (Homo sapiens, UniProt Q86X55)
- Sequence (Q86X55 whole entry): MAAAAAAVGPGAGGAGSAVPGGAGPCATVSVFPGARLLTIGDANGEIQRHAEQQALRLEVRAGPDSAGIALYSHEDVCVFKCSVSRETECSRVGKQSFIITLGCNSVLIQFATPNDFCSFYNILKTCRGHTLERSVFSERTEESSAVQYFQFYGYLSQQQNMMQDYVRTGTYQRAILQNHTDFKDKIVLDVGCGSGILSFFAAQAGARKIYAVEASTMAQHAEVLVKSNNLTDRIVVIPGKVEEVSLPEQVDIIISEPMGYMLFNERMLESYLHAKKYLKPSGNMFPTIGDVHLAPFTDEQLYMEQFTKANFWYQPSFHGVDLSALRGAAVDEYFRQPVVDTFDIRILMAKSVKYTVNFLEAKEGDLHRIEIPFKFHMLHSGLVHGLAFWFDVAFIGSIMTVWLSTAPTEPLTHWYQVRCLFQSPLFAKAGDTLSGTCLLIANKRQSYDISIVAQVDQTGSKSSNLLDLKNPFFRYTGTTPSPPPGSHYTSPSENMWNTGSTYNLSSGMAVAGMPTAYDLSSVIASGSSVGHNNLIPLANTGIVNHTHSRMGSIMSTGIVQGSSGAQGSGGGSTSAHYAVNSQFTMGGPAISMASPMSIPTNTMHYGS
parameter_measured: IC50
Dear colleague, please send the value followed by its unit.

GET /values?readout=IC50&system=Histone-arginine methyltransferase CARM1 (Homo sapiens, UniProt Q86X55)&item= `N=C(N)NCCC[C@H](N)C(=O)NCC(=O)N[C@H](CCNC(=N)NCCSC[C@H]1O[C@@H](n2cnc3c(N)ncnc32)[C@H](O)[C@@H]1O)C(N)=O` 2.8 nM

---

- study_target: Protein arginine N-methyltransferase 5 (Homo sapiens, UniProt O14744)
- Sequence (O14744 whole entry): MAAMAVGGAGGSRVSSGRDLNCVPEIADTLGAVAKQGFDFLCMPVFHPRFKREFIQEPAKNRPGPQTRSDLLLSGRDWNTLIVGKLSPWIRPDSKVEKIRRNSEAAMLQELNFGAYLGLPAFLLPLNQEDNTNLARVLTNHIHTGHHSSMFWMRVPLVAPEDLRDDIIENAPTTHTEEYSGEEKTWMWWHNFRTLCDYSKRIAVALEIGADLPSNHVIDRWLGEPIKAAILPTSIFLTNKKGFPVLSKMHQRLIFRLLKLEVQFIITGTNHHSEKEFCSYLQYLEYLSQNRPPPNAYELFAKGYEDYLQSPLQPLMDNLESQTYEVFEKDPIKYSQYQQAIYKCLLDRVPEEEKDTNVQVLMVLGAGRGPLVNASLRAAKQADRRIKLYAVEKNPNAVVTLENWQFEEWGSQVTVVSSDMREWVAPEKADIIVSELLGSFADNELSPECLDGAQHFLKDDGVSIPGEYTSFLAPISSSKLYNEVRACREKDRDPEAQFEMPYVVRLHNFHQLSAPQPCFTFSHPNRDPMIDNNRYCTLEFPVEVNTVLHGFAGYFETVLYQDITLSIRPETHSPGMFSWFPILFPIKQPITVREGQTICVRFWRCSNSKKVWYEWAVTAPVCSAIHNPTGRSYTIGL
- assay_name: Inhibition of PRMT5 (unknown origin) by AlphaLISA assay
compounds and their reported IC50
Response body: numeric value in µM, unit text excluded.

smiles_data: COc1cccc(/C=N/c2ccc(O)c(-c3nc4cc(C)ccc4o3)c2)c1O
test_result: 8.1

Given `CCc1ccc2oc(-c3cc(/N=C/c4cccc(C)c4O)ccc3O)nc2c1` , state its recorded IC50. 60

Given `CCOC(=O)c1c(NC(=O)CSc2nnc3c4ccccc4n(CCc4ccccc4)c3n2)sc2c1CCN(C)C2` , state its recorded IC50. 6.5

Given `COc1ccc(OC)c(NC(=O)CSc2nnc3c4ccccc4c4ccccc4c3n2)c1` , state its recorded IC50. 27
